- Test system: 777334-354-R2-J4-PDC tumor spheroids with HUVEC/MSC, viability
- assay-overview: Anticancer human tumor 777334-354-R2-J4-PDC patient-derived pancreatic adenocarcinoma cell line growth inhibition [GQUAD]
- protocol-conditions: second compound 0.316 µM; first compound 3.16 µM; active compounds read low
measured-endpoint: viability, T/C

Illustrative cases are given below, each with its answer.
>>> result("CC(C)n1c(=O)n(C)c2cnc3cc(F)c(-c4ccc(OCCCN5CCCCC5)nc4)cc3c21 + Cc1[nH]c2ccc(F)cc2c1-c1nc2c3cccnc3c3ncccc3c2[nH]1")
"99.1%"
>>> result("O=C(c1cc(Cc2n[nH]c(=O)c3ccccc23)ccc1F)N1CCN(C(=O)C2CC2)CC1 + Cc1[nH]c2ccc(F)cc2c1-c1nc2c3cccnc3c3ncccc3c2[nH]1")
"106%"
>>> result("COc1cccc2c1C(=O)c1c(O)c3c(c(O)c1C2=O)CC(O)(C(=O)CO)CC3OC1CC(N)C(O)C(C)O1 (stereo not given) + Cc1cnc(CNC(=O)c2c(=O)c3ccc(N4CCCN(C)CC4)nc3n3c2sc2ccccc23)cn1")
"26.3%"
>>> result("COc1cc(C2c3cc4c(cc3C(OC3OC5COC(C)OC5C(O)C3O)C3COC(=O)C23)OCO4)cc(OC)c1O (stereo not given) + CN(C)c1ccc(Nc2c3ccc(NC(=O)CCN4CCCC4)cc3nc3cc(NC(=O)CCN4CCCC4)ccc23)cc1")
"53.6%"

Pending compound:
Give the observed viability, T/C of C=CC(=O)N1CCN(c2nc(=O)n(-c3c(C)ccnc3C(C)C)c3nc(-c4c(O)cccc4F)c(F)cc23)C(C)C1 (stereo not given) + Cc1cnc(CNC(=O)c2c(=O)c3ccc(N4CCCN(C)CC4)nc3n3c2sc2ccccc23)cn1 for 777334-354-R2-J4-PDC tumor spheroids with HUVEC/MSC, viability.
90.7%

----------
- Test system: 777334-354-R2-J4-PDC tumor spheroids with HUVEC/MSC, viability
- assay-overview: Anticancer human tumor 777334-354-R2-J4-PDC cell line growth inhibition [GQUAD];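 also: spheroids exposed to compounds for 7 days before readout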
- protocol-conditions: second compound 0.0316 µM; first compound 0.1 µM; active compounds read low
Binary label based on viability, T/C with cut-off 80%: below gives Y, not below gives N.

A selection of reference data follows.
>>> classification("COc1ccc([C@@H](O)c2cc(-c3ncnc4cc(N5CCOCC5)ccc34)c(F)cc2Cl)nn1 + Cc1[nH]c2ccc(F)cc2c1-c1nc2c3cccnc3c3ncccc3c2[nH]1")
"N"
>>> classification("CCCS(=O)(=O)Nc1ccc(F)c(C(=O)c2c[nH]c3ncc(-c4ccc(Cl)cc4)cc23)c1F + CN(C)c1ccc(Nc2c3ccc(NC(=O)CCN4CCCC4)cc3nc3cc(NC(=O)CCN4CCCC4)ccc23)cc1")
"N"
>>> classification("Nc1ccn(C2OC(CO)C(O)C2(F)F)c(=O)n1 (stereo not given) + CN(C)c1ccc(Nc2c3ccc(NC(=O)CCN4CCCC4)cc3nc3cc(NC(=O)CCN4CCCC4)ccc23)cc1")
"Y"
>>> classification("CC(C)n1c(=O)n(C)c2cnc3cc(F)c(-c4ccc(OCCCN5CCCCC5)nc4)cc3c21 + Cc1cnc(CNC(=O)c2c(=O)c3ccc(N4CCCN(C)CC4)nc3n3c2sc2ccccc23)cn1")
"N"

Please turn your attention to the following entry.
Regarding CC1COCCN1c1cc(C2(O)CC3CCC(C2)O3)c2cnn(-c3ccn[nH]3)c2n1 (stereo not given) + Cc1[nH]c2ccc(F)cc2c1-c1nc2c3cccnc3c3ncccc3c2[nH]1 , kindly confirm whether its viability, T/C is beneath 80%.
Y
